// data source = patent US6448273B1

assay_text: pKa of the ligand
Assay type: physicochemical
reported_conditions: method marked (s), second pKa
Where a name gives a salt, the structure may show the parent alone.
reported_metric: pKa, second value (s)

INSERT INTO assay_data (compound, numeric_value) VALUES
  ('Cc1cc(=O)c(O)c(CO)n1C [CP360, hydrochloride]', 9.42),
  ('CCC(O)c1c(O)c(=O)cc(C)n1C (centres unmarked) [CP374, hydrochloride]', 8.98),
  ('CCn1ccc(=O)c(O)c1C(C)O (centres unmarked) [CP365, hydrochloride]', 8.74),
  ('Cc1c(O)c(=O)ccn1C [CP20, reference compound]', 9.64),
  ('Cc1cc(=O)c(O)c(C(C)O)n1C (centres unmarked) [CP361, hydrochloride]', 8.97);

----------
assay_text: pKa of the ligand
Format: physicochemical
reported_conditions: method marked (s), first pKa
Counter-ions that a name gives are not always drawn.
reported_metric: pKa, first value (s)

INSERT INTO measurements (molecule, numeric_value) VALUES
  ('Cc1cc(=O)c(O)c(CO)n1C [CP360, hydrochloride]', 3.37),
  ('Cn1ccc(=O)c(O)c1CO [CP364, hydrochloride]', 2.93),
  ('Cc1c(O)c(=O)ccn1C [CP20, reference compound]', 3.56),
  ('CCn1ccc(=O)c(O)c1CO [CP359, hydrochloride]', 2.88),
  ('CC(O)c1c(O)c(=O)ccn1CCCO (stereo not drawn) [CP372, hydrochloride]', 2.96),
  ('Cc1cc(=O)c(O)c(C(C)O)n1C (stereo not drawn) [CP361, hydrochloride]', 3.55),
  ('CCn1ccc(=O)c(O)c1C(C)O (stereo not drawn) [CP365, hydrochloride]', 3.11),
  ('CCn1c(C)cc(=O)c(O)c1CO [CP369, hydrochloride]', 3.28),
  ('O=c1ccn(CCCO)c(CO)c1O', 2.87);

----------
assay_text: pM for Iron III (affinity for iron as Fe III)
Format: physicochemical
reported_conditions: negative log ferric ion concentration; total iron 10^-6 M, ligand 10^-5 M
Counter-ions that a name gives are not always drawn.
reported_metric: pMpH 7.45

INSERT INTO assay_data (compound, reported_metric, numeric_value) VALUES
  ('CCn1ccc(=O)c(O)c1C(C)O (centres unmarked) [CP365, hydrochloride]', 'pMpH 7.45', 21.3),
  ('O=c1ccn(CCO)c(C(O)c2ccccc2)c1O (centres unmarked) [Novartis bidentate ligand (3), reference compound]', 'pMpH 7.45', 23.15),
  ('Cc1c(O)c(=O)ccn1C [CP20, reference compound]', 'pMpH 7.45', 19.4),
  ('Cn1ccc(=O)c(O)c1CO [CP364, hydrochloride]', 'pMpH 7.45', 20.75),
  ('CCn1c(C)cc(=O)c(O)c1CO [CP369, hydrochloride]', 'pMpH 7.45', 20.35),
  ('COCc1cc(=O)c(O)c(COC)n1C [CP388, hydrochloride]', 'pMpH 7.45', 21.1),
  ('CCc1c(O)c(=O)ccn1CC [CP94, 1,2-diethyl-3-hydroxypyridin-4-one, reference compound]', 'pMpH 7.45', 19.7),
  ('CC(O)c1c(O)c(=O)ccn1CCCO (centres unmarked) [CP372, hydrochloride]', 'pMpH 7.45', 21.48),
  ('O=c1ccn(CCCO)c(CO)c1O', 'pMpH 7.45', 20.69),
  ('Cc1cc(=O)c(O)c(C(C)O)n1C (centres unmarked) [CP361, hydrochloride]', 'pMpH 7.45', 21.47),
  ('CNC(=O)c1c(O)c(=O)cc(C)n1C [CP502, hydrochloride]', 'pMpH 7.45', 23.42);
